For each entry below, report its Cell kill IC50, HekNectin4 value.
tested_target: T1, human nectin-4 protein expressed on the surface of cells (human, UniProt Q96NY8 32-510)
T1 sequence: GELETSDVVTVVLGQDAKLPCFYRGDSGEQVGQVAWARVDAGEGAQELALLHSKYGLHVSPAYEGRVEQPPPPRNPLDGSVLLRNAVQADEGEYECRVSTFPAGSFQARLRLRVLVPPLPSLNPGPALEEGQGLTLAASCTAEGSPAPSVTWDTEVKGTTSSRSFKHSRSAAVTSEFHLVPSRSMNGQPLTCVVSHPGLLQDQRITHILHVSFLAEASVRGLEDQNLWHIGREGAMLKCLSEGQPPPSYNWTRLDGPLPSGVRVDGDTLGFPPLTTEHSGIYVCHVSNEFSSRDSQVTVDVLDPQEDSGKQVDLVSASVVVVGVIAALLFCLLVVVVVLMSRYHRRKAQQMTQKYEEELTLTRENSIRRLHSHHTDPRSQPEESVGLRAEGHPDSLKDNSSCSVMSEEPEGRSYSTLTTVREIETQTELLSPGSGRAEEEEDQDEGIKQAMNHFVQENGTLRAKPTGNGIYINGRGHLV
experiment_description: cell-based or functional assay
Field: numeric (nM). Do not append units.

// Nectin-4 5D9H/5D9L (recombinant chimeric antibody) (antibody, V domains shown, also called Nectin-4 5D9 chimeric mAb) VH: QVQLKQSGPGLVQPSQSLSITCTVSGFSLTNYGVHWVRQSPGKGLEWLGVIWSGGSTDYNAAFVSRLSISRDNSKSQVFFKMNSLQADDTAIYYCARSGKWYYFDYWGQGTTLTVSS VL: DIQMTQSPASLSVSVGETVTITCRASENIYSNLAWYQQKQGKSPQLLVYAATNLADGVPSRFSGSGSGTQYSLKINSLQSEDFGSYYCQHFWGTPTFGGGTKLEIK : Cell kill IC50, HekNectin4 value = 0.207

Lab book: Cell kill IC50, HekNectin4 of Nectin-4 5D9 VH3/VL4 (antibody, V domains shown, Humanized; also called 5D9 VH variant 3 / 5D9 VL variant 4) VH: QVQLQESGPGLVKPSETLSLTCTVSGGSITNYGVHWIRQPPGKGLEWLGVIWSGGSTDYNPSLKSRVTISVDTSKNQFSLKLSSVTAADTAVYYCARSGKWYYFDYWGQGTLVTVSS VL: DIQMTQSPSSLSASVGDRVTITCRASENIYSNLAWYQQKPGKAPKLLVYAATNLADGVPSRFSGSGSGTDYTLTISSLQPEDFATYYCQHFWGTPTFGGGTKVEIK noted as 41.1

// Cell kill IC50, HekNectin4 value for Nectin-4 5D9 VH5/VL2 (antibody, V domains shown, Humanized; also called 5D9 VH variant 5 / 5D9 VL variant 2) VH: QVQLQESGPGLVKPSETLSLTCTVSGGSLTNYGVHWVRQPPGKGLEWIGVIWSGGSTNYNPSLKSRVTISRDTSKNQVSLKLSSVTAADTAVYYCARSGKWYYFDYWGQGTLVTVSS VL: DIQMTQSPSSLSASVGDTVTITCRASQNIYSNLAWYQQKQGKAPKLLVYAATNLADGVPSRFSGSGSGTDFTLKINSLQPEDFATYYCQHFWGTPTFGGGTKVEIK : 49.6
